Source of measurements: ChEMBL document CHEMBL1149664

# Tested on: Plasma
# measurementProtocol: Anticoagulant potency in human citreated plasma assessed as concentration required to double activated partial thromboplastin time
# Format: functional
Activity vs 0.8 µM: at or above is y, below is n.

Previously resolved entries follow.
1) CC(C)N1CCC(Oc2cc(C(C)(C)C)ccc2C(=O)Nc2ccccc2C(=O)Nc2ccc(Cl)cn2)CC1: y
2) NCCCOc1cc(N2CCCCCC2)ccc1C(=O)Nc1ccccc1C(=O)Nc1ccc(Cl)cn1: y
3) CC(C)(C)c1ccc(C(=O)Nc2ccccc2C(=O)Nc2ccc(Cl)cn2)c(OC2CCN(C(=O)Nc3ccccc3F)CC2)c1: y

For the next question, use this compound.
Query :: Does the compound CC(C)(C)c1ccc(C(=O)Nc2ccccc2C(=O)Nc2ccc(Cl)cn2)c(OC2CCN(Cc3ccsc3)CC2)c1 have recorded Activity that is 0.8 µM or more?
Result :: y
